Test system: KM12 colon
Experiment: NCI tumour cell line growth inhibition, 48 h
OUTCOME MEASURE: TGI

> print(dat)
                                    molecule  outcome.measure  assay.value
 1  COc1ccc(N=Nc2c(-c3c(OC)cc4occc4c3OC)[nH]c(=O)c(C#N)c2C)cc1              TGI     > 100 µM
 2  C[C@]12CCC3[C@@H](CCC45OC4C(=O)CC[C@]35C)C1Cc1cnn(-c3ccc(F)cc3)c1N2 (some centres undefined)              TGI      55.1 µM
 3  CC(C)(CO)CNC(=O)c1ccc2[nH]c(O)c(N=Nc3ccc(S(N)(=O)=O)cc3)c2c1              TGI      > 25 µM
 4  N#CC(C(=O)C(=O)Nc1c(Cl)cccc1Cl)c1ccccc1 (centres undefined)              TGI     > 100 µM
 5            Nc1ncc(Cc2ccc3c(c2)OCO3)c(N)n1              TGI     > 100 µM
 6  CN(C)c1nc(Oc2nc(N(C)C)nc(N(C)C)n2)nc(N(C)C)n1              TGI     > 100 µM
 7  CN(C)CCCC1(c2ccc(F)cc2)OCc2cc(-c3cccc4[nH]ccc34)ccc21 (centres undefined)              TGI      3.27 µM
 8  COc1ccc2c(c1)c1c(n2CCN2CCCCC2)-c2cccc(OC)c2CC1              TGI      28.8 µM
 9  Cc1ccc2c(c1)CN1c3ccc(C)cc3CN2C1c1ccccc1O              TGI     > 100 µM
10  CN(C)c1ccc(/C=C(\NC(=O)c2ccccc2)C(=O)NC(CC(=O)O)C(=O)O)cc1 (centres undefined)              TGI     > 100 µM
11  COc1ccc(C(=O)c2cc(OC)c(OC)c(OC)c2OC)cc1O              TGI     > 100 µM
12  CCOC(=O)C1C(c2ccc(Cl)cc2Cl)NC(c2ccc(C)cc2)C(C(=O)OC)S1(=O)=O (centres undefined)              TGI     > 100 µM
13  CC1=N/C(=C\c2ccc(/C=C3/N=C(C)OC3=O)cc2)C(=O)O1              TGI     > 100 µM
14           Cc1ccccc1-c1nc2c(N)nc(N)nc2nc1N              TGI     > 100 µM
15        CCc1c(O)cc(=O)oc1-c1ccc(OC)c(OC)c1              TGI     > 100 µM
16  CC(=O)ON1CCCC(P(=O)(OCOC(=O)C(C)(C)C)OCOC(=O)C(C)(C)C)C1=O (centres undefined)              TGI      2.54 µM
17               O=CC(I)=C(c1ccccc1)c1ccccc1              TGI      28.7 µM
18                c1c[nH]c(-c2cccc3nsnc23)c1              TGI     > 100 µM
19  O=C(/C=C/c1ccc(O)c(O)c1)OCCc1ccc2ccccc2c1              TGI      12.9 µM
